System: TNF-α induced IL-8 in human whole blood
assay_protocol: Inhibition of TNF-α induced IL-8 in 50% human whole blood
Format: cell-based
measurement_conditions: 1 nM TNF-α, secreted IL-8, read-out: WB TNF/IL8 IC50
Method: Inhibition of TNF-α Induced IL-8 in 50% Human Whole Blood Test compounds were evaluated in vitro for the ability to inhibit the production of secreted IL-8 by whole blood activated with TNF-α. […] Cytokines are measured on antibody (Ab) sandwich ECL based 96-well detection plates. […] Plates are read on MSD Sector HTS instrument. Data are analyzed and IC50 values generated using Activity Base and Xl-fit programs.
pIC50: −log10 of the molar value.
Class T: pIC50 at least 8. Class F: pIC50 below 8.

{"structure_as_smiles": "Cc1ccc(C(N)=O)cc1-c1nncc2nc(Oc3ccc(F)cc3F)ccc12", "class": "T"}
{"structure_as_smiles": "Cc1ncccc1-c1nncc2nc(Nc3ccc(F)cc3F)ccc12", "class": "T"}
{"structure_as_smiles": "Cc1ccccc1-c1nncc2nc(Nc3ccc(F)cc3F)ccc12", "class": "T"}

pIC50 >= 8 for Fc1ccc(Oc2ccc3c(-c4cn[nH]c4)nncc3n2)c(F)c1 ? F

pIC50 >= 8 for Cc1noc(C)c1-c1nncc2nc(Oc3ccc(F)cc3F)ccc12 ? F

pIC50 >= 8 for Cc1ccccc1-c1nncc2nc(Oc3ccc(F)cc3F)ccc12 ? T

pIC50 >= 8 for Fc1ccc(Nc2ccc3c(-c4ccc(F)cc4F)nncc3n2)c(F)c1 ? T

pIC50 >= 8 for Cc1ccc(C(N)=O)cc1-c1nncc2nc(Oc3ccc(F)cc3)ccc12 ? T

pIC50 >= 8 for Cc1cc(F)ccc1Oc1ccc2c(-c3ccccc3C)nncc2n1 ? F

pIC50 >= 8 for Cc1n[nH]cc1-c1nncc2nc(Nc3ccc(F)cc3F)ccc12 ? T

pIC50 >= 8 for Fc1ccc(Nc2ccc3c(-c4cn[nH]c4)nncc3n2)c(F)c1 ? T

pIC50 >= 8 for O=C(c1cccc(-c2nncc3nc(Nc4ccc(F)cc4F)ccc23)c1)N1CCOCC1 ? F

pIC50 >= 8 for Cc1cc(F)ccc1Oc1ccc2c(-c3cc(C(N)=O)ccc3C)nncc2n1 ? F

pIC50 >= 8 for Cc1cc(S(C)(=O)=O)ccc1-c1nncc2nc(Nc3ccc(F)cc3F)ccc12 ? T
